target: Thymidylate synthase (Lactobacillus casei); assay: Inhibition of dichloromethotrexate-resistant Lactobacillus casei thymidylate synthase by Dixon plot method; set-up: species or system Lacticaseibacillus casei
Sequence (P00469 whole entry): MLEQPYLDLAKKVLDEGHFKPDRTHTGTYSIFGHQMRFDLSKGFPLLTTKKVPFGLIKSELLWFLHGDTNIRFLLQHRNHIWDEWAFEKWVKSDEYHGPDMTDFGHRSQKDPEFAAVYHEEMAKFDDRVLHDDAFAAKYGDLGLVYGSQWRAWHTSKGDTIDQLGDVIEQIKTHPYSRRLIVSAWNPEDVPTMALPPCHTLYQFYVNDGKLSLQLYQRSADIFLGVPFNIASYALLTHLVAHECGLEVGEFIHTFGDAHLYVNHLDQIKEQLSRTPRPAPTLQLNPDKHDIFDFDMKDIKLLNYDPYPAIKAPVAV
Measured Endpoint: Ki (nM)
# unit: nM | format: bare number

Query block: // Input: O=c1[nH]c(=O)n([C@H]2C[C@H](O)[C@@H](COP(=O)(O)O)O2)cc1S . Output its Ki only.
Result block: 48

* * *

target: Thymidylate synthase (Lactobacillus casei); test: Reversible competitive inhibition of dichloromethotrexate-resistant Lactobacillus casei thymidylate synthase using […] as substrate by Dixon plot method; design: species or system Lacticaseibacillus casei; settings: read-out: Ki(app)
Measured Endpoint: Ki (nM)
# unit: nM | format: bare number

Query block: // Input: O=c1[nH]c(=O)n([C@H]2C[C@H](O)[C@@H](COP(=O)(O)O)O2)cc1[SeH] . Output its Ki only.
Result block: 60
